MEASURED ON: HCV NS3 protease WT 1b (Hepatitis C virus genotype 1b)
Construct: The single-chain proteolytic domain (NS4A21-32-GSGS-NS33-631) was cloned into pET-14b; His tag (own knowledge of vector pET-14b); made in house; host or cells: Escherichia coli BL21
Sequence (P26663 1013-1207, looked up, natural form): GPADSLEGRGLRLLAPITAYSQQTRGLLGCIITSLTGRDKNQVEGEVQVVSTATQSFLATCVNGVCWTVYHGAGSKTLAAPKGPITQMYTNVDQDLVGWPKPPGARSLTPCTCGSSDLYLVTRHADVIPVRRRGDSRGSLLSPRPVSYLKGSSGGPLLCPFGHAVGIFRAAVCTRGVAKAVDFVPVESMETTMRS
METHOD DESCRIPTION: MALDI MS of intact HCV protease 1b WT incubated with compound
Format: binding
SETTINGS: WT 1b, 1 HR
EXPERIMENTAL ENDPOINT: MS_HCVNS3_INTACT_NS3 WT 1b 1 HR

Query string: Please indicate MS_HCVNS3_INTACT_NS3 WT 1b 1 HR recorded for C=C[C@@H]1C[C@]1(NC(=O)[C@@H]1CC(Oc2cc(-c3ccccc3)nc3cc(OC)ccc23)CN1C(=O)[C@H](CNC(=O)[C@@H]1CCC(=O)O1)NC(=O)OC(C)(C)C)C(=O)NS(=O)(=O)C1CC1 (stereo partly drawn)
Result string: K (≤30% modification)

Query string: Note down MS_HCVNS3_INTACT_NS3 WT 1b 1 HR recorded for C=C[C@@H]1C[C@]1(NC(=O)[C@@H]1CC(Oc2nccc3cc(OC)ccc23)CN1C(=O)[C@H](CCC(=O)N1C[C@@H]2CC[C@H]1C(=O)O2)NC(=O)OC(C)(C)C)C(=O)NS(=O)(=O)C1CC1 (stereo partly drawn)
Result string: K (≤30% modification)

Query string: Return the recorded MS_HCVNS3_INTACT_NS3 WT 1b 1 HR value; entry: C=C[C@@H]1C[C@]1(NC(=O)[C@@H]1CC(Oc2nccc3cc(OC)ccc23)CN1C(=O)[C@H](CCC(=O)N1CC[C@H]2C[C@@H]1C(=O)O2)NC(=O)OC(C)(C)C)C(=O)NS(=O)(=O)C1CC1 (stereo partly drawn)
Result string: K (≤30% modification)

----------
MEASURED ON: recombinant human cIAP-1 (Homo sapiens, UniProt Q13490)
Sequence (Q13490 whole entry): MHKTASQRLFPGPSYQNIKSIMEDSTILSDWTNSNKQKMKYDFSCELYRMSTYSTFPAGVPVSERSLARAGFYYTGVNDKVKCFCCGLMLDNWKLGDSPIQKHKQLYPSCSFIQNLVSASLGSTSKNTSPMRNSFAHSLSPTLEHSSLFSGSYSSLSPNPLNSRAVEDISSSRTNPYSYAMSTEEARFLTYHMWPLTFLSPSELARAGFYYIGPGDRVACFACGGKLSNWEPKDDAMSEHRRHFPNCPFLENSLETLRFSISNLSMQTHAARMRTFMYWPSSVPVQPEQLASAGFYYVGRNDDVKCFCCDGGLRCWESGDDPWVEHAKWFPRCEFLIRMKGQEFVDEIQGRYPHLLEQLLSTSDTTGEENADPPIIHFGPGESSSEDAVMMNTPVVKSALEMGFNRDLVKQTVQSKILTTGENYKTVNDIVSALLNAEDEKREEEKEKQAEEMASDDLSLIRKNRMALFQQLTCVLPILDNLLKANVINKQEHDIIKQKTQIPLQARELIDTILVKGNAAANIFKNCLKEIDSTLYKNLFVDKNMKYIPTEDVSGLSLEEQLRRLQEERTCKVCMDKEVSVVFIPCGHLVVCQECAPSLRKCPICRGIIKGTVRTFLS
METHOD DESCRIPTION: Fluorescence polarization competition binding assay, cIAP-1
SETTINGS: c-IAP-1, 3 h
EXPERIMENTAL ENDPOINT: Ki

Check out these entries, answers already filled in.
Query string: // output Ki; input CN[C@@H](C)C(=O)N[C@H]1CCCC[C@H]2CC[C@@H](C(=O)NCc3cccc(OC4CCOC4=O)c3)N2C1=O (stereo partly drawn) ; system recombinant human cIAP-1 (Homo sapiens, UniProt Q13490)
Result string: 0.1 to 1 µM

Query string: Specify Ki for CN[C@@H](C)C(=O)N[C@H]1CCCC[C@H]2CC[C@@H](C(=O)NCc3cccc(C(=O)N[C@H]4CCOC4=O)c3)N2C1=O , system recombinant human cIAP-1 (Homo sapiens, UniProt Q13490).
Result string: 0.1 to 1 µM

Query string: Print recombinant human cIAP-1 (Homo sapiens, UniProt Q13490) Ki for CN[C@@H](C)C(=O)N[C@H]1CCCC[C@H]2CC[C@@H](C(=O)NCc3cccc(C(=O)NC[C@@H]4CCC(=O)O4)c3)N2C1=O .
Result string: 0.1 to 1 µM

Query string: Report its Ki with recombinant human cIAP-1 (Homo sapiens, UniProt Q13490) as the test system: CN[C@@H](C)C(=O)N[C@H]1CCCC[C@H]2CC[C@@H](C(=O)NCc3cccc(NC(=O)C45CC[C@](C)(C(=O)O4)C5(C)C)c3)N2C1=O
Result string: 0.1 to 1 µM

Query string: Write down the reported Ki (system: recombinant human cIAP-1 (Homo sapiens, UniProt Q13490)) of CN[C@@H](C)C(=O)N[C@H]1CCCC[C@H]2CC[C@@H](C(=O)NCc3cccc(NC(=O)[C@@H]4CCC(=O)O4)c3)N2C1=O
Result string: 0.1 to 1 µM

***
Query string: Specify Ki for CN[C@@H](C)C(=O)N[C@H]1CCCC[C@H]2CC[C@@H](C(=O)NCc3cccc(NC(=O)/C=C/CN(C)C)c3)N2C1=O , system recombinant human cIAP-1 (Homo sapiens, UniProt Q13490).
Result string: 0.1 to 1 µM

Query string: Answer with Ki of CN[C@@H](C)C(=O)N[C@H]1CCCC[C@H]2CC[C@@H](C(=O)NCc3cccc(NC(=O)[C@H]4CCC(=O)N4)c3)N2C1=O measured for recombinant human cIAP-1 (Homo sapiens, UniProt Q13490).
Result string: 0.1 to 1 µM

Query string: State Ki on recombinant human cIAP-1 (Homo sapiens, UniProt Q13490). Entry: CN[C@@H](C)C(=O)N[C@H]1CCCC[C@H]2CC[C@@H](C(=O)NCc3cccc(C(=O)N4CCC5C[C@H]4C(=O)O5)c3)N2C1=O
Result string: 1 to 10 µM

Query string: Give reported Ki for C=CC(=O)Nc1cccc(CNC(=O)[C@@H]2CC[C@@H]3CCCC[C@H](NC(=O)[C@H](C)NC)C(=O)N32)c1 (recombinant human cIAP-1 (Homo sapiens, UniProt Q13490))
Result string: 0.1 to 1 µM

----------
MEASURED ON: PDPK1 (Homo sapiens, UniProt O15530)
Sequence (O15530 whole entry): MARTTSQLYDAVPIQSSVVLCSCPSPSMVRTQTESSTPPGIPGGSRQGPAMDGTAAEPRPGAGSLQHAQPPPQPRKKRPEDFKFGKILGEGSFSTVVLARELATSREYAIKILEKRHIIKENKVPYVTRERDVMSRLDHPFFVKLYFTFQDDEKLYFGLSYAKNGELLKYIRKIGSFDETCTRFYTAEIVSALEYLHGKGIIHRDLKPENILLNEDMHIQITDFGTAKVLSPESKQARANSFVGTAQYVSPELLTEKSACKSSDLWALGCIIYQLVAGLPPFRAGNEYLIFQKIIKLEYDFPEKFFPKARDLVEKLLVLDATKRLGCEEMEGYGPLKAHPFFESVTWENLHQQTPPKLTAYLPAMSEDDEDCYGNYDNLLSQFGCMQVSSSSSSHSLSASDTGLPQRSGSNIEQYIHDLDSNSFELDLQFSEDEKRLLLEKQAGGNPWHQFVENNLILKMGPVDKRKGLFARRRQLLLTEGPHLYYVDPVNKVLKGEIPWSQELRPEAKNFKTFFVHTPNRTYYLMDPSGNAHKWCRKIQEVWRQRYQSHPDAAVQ
METHOD DESCRIPTION: MALDI MS of intact PDPK1 incubated with compound
Type: binding
Design: purchased Millipore 14-452
SETTINGS: PDPK1 whole protein, MS
// values below are reported Number of Modifications on Whole Protein
Note: the reply should be a number with no unit written.

Query string: Give a short answer stating reported Number of Modifications on Whole Protein for CC(C)(C(N)=O)C(=O)NCCCNc1nc(Nc2cccc(NC(=O)CNC(=O)C3CCC(=O)S3)c2)ncc1Br (stereo not drawn) .
Result string: 2

Query string: Give recorded Number of Modifications on Whole Protein. C=CC(=O)Nc1cccc(Nc2ncc(Br)c(NCCCNC(=O)C(C)(C)C(N)=O)n2)c1
Result string: 1

Query string: Determine from records and report Number of Modifications on Whole Protein for CC(C)(C(N)=O)C(=O)NCCCNc1nc(Nc2cccc(NC(=O)CNC(=O)C3CSC(=O)C3)c2)ncc1Br (stereo not drawn)
Result string: 1

Query string: Consider the molecule CC(C)(C(N)=O)C(=O)NCCCNc1nc(Nc2cccc(NC(=O)C3CCC(=O)S3)c2)ncc1Br (stereo not drawn) . State its measured Number of Modifications on Whole Protein.
Result string: 2

Query string: Give reported Number of Modifications on Whole Protein value for CC(C)(C(N)=O)C(=O)NCCCNc1nc(Nc2cccc(NC(=O)C3CSC(=O)C3)c2)ncc1Br (stereo not drawn)
Result string: 1

Next:
Query string: Supply measured Number of Modifications on Whole Protein of C=CC(=O)Nc1ccc(Nc2ncc(Br)c(NCCCNC(=O)C(C)(C)C(N)=O)n2)cc1 in your reply.
Result string: 1

----------
MEASURED ON: p120γ (PI3Kγ) (Homo sapiens, UniProt P48736)
Construct: purchased BPS Bioscience 40625
METHOD DESCRIPTION: HTRF assay, p120γ
Format: biochemical
SETTINGS: PI3Kγ; read-out: PI3Kγ HTRF IC50 Inhibition Designation
pIC50: −log10 of the molar value.
// reported pIC50 for each item listed

Illustrative cases are given below, each with its answer.
Query string: Using the record for C=CS(=O)(=O)Oc1cccc(-c2nc(N3CCOCC3)c3sc(CN(C)S(=O)(=O)C=C)cc3n2)c1 , state its measured pIC50.
Result string: 6.00 to 7.00

Query string: Quick one: give measured pIC50 for O=C1O[C@H]2C[C@@H]1N(Cc1cc(O)cc(-c3nc(N4CCOCC4)c4sccc4n3)c1)C2
Result string: 5.00 to 6.00

Query string: Specify pIC50 for CC(C)Oc1c(N2CCN(Cc3cc4nc(-c5cnc(N)nc5)nc(N5CCOCC5)c4s3)CC2)c(=O)c1=O and stop.
Result string: 6.00 to 7.00

Query string: // fetch pIC50 given entry Nc1ncc(-c2nc(N3CCOCC3)c3sc(CN4CCN(C(=O)C5CSC(=O)C5)CC4)cc3n2)cn1 (stereo not drawn)
Result string: 6.00 to 7.00

# next compound below
Query string: Recall and state the measured pIC50 for CC1(C)Cc2nc(N3CCOc4ccc(-c5ccc6occc(=O)c6c5)cc43)sc2C(=O)N1 .
Result string: 6.00 to 7.00

----------
MEASURED ON: recombinant human cIAP-1 (Homo sapiens, UniProt Q13490)
METHOD DESCRIPTION: Fluorescence polarization competition binding assay, cIAP-1
SETTINGS: c-IAP-1, 3 h
pKi: −log10 of the molar value.
EXPERIMENTAL ENDPOINT: pKi

Query string: Give the reported pKi for this molecule. CN[C@@H](C)C(=O)N[C@H]1CCCC[C@H]2CC[C@@H](C(=O)NCc3cccc(NC(=O)C4COC(=O)C4)c3)N2C1=O (stereo partly drawn)
Result string: 5.00 to 6.00

Query string: Find the measured pKi of CN[C@@H](C)C(=O)N[C@H]1CCCC[C@H]2CC[C@@H](C(=O)NCc3cccc(C(=O)N4C[C@H]5C[C@@H]4C(=O)O5)c3)N2C1=O and report it.
Result string: 6.00 to 7.00

Query string: Kindly indicate its recorded pKi. Item: CN[C@@H](C)C(=O)N[C@H]1CCCC[C@H]2CC[C@@H](C(=O)NCc3cccc(C(=O)NC[C@H]4CCC(=O)O4)c3)N2C1=O
Result string: 6.00 to 7.00

Query string: Let me know recorded pKi for CN[C@@H](C)C(=O)N[C@H]1CCCC[C@H]2CC[C@@H](C(=O)NCc3cccc(NC(=O)C4CCOC4=O)c3)N2C1=O (stereo partly drawn) , thanks.
Result string: 6.00 to 7.00

Query string: Specify reported pKi for the molecule shown: CN[C@@H](C)C(=O)N[C@H]1CCCC[C@H]2CC[C@@H](C(=O)NCc3cccc(NC(=O)[C@@H]4CCC(=O)N4)c3)N2C1=O
Result string: 5.00 to 6.00

Others:
Query string: Please report pKi for the following molecule: C=C(C)C(=O)Nc1cccc(CNC(=O)[C@@H]2CC[C@@H]3CCCC[C@H](NC(=O)[C@H](C)NC)C(=O)N32)c1
Result string: 6.00 to 7.00

Where do the numbers come from? From patent US11542492B2.
